Test system: Plasmodium falciparum
Test: Antimalarial activity against chloroquine-,pyrimethamine-resistant Plasmodium falciparum W2 assessed as inhibition of [3H]hypoxanthine incorporation after 96 hrs by microtiter plate scintillation counting
Type: functional, organism-based
readout: pIC50
Keep in mind that pIC50 stands for -log10 of concentration in molar terms.

Some solved entries appear below for comparison.
molecule	pIC50
CC[C@H]1OC(=O)[C@H](C)[C@@H](O[C@H]2C[C@@](C)(OC)[C@@H](O)[C@H](C)O2)[C@H](C)[C@@H](O[C@@H]2O[C@H](C)C[C@H](N(C)C)[C@H]2O)[C@](C)(O)C[C@@H](C)CN(CCCNC(=S)NCCN2CCCCC2)[C@H](C)[C@@H](O)[C@]1(C)O	5.48
CC[C@H]1OC(=O)[C@H](C)[C@@H](O[C@H]2C[C@@](C)(OC)[C@@H](O)[C@H](C)O2)[C@H](C)[C@@H](O[C@@H]2O[C@H](C)C[C@H](N(C)C)[C@H]2O)[C@](C)(O)C[C@@H](C)CN(CCCNC(=S)Nc2ccc(Cl)cc2)[C@H](C)[C@@H](O)[C@]1(C)O	7.27
CC[C@H]1OC(=O)[C@H](C)[C@@H](O[C@H]2C[C@@](C)(OC)[C@@H](O)[C@H](C)O2)[C@H](C)[C@@H](O[C@@H]2O[C@H](C)C[C@H](N(C)C)[C@H]2O)[C@](C)(O)C[C@@H](C)CN(CCCNC(=O)NC(C)(C)CC(C)(C)C)[C@H](C)[C@@H](O)[C@]1(C)O	7.11

Specify pIC50 for CC[C@H]1OC(=O)[C@H](C)[C@@H](O[C@H]2C[C@@](C)(OC)[C@@H](O)[C@H](C)O2)[C@H](C)[C@@H](O[C@@H]2O[C@H](C)C[C@H](N(C)C)[C@H]2O)[C@](C)(O)C[C@@H](C)CN(CCCNC(=O)Nc2cc(C(=O)OC)cc(C(=O)OC)c2)[C@H](C)[C@@H](O)[C@]1(C)O and stop.
6.92

Specify pIC50 for CC[C@H]1OC(=O)[C@H](C)[C@@H](O[C@H]2C[C@@](C)(OC)[C@@H](O)[C@H](C)O2)[C@H](C)[C@@H](O[C@@H]2O[C@H](C)C[C@H](N(C)C)[C@H]2O)[C@](C)(O)C[C@@H](C)CN(CCCNC(=O)Nc2ccc3c(c2)CCO3)[C@H](C)[C@@H](O)[C@]1(C)O and stop.
5.80

Specify pIC50 for CC[C@H]1OC(=O)[C@H](C)[C@@H](O[C@H]2C[C@@](C)(OC)[C@@H](O)[C@H](C)O2)[C@H](C)[C@@H](O[C@@H]2O[C@H](C)C[C@H](N(C)C)[C@H]2O)[C@](C)(O)C[C@@H](C)CN(CCCNC(=O)Nc2ccc(C(C)=O)cc2)[C@H](C)[C@@H](O)[C@]1(C)O and stop.
6.15

Specify pIC50 for CC[C@H]1OC(=O)[C@H](C)[C@@H](O[C@H]2C[C@@](C)(OC)[C@@H](O)[C@H](C)O2)[C@H](C)[C@@H](O[C@@H]2O[C@H](C)C[C@H](N(C)C)[C@H]2O)[C@](C)(O)C[C@@H](C)CN(CCCNC(=S)NCCCSC)[C@H](C)[C@@H](O)[C@]1(C)O and stop.
6.69

Specify pIC50 for CC[C@H]1OC(=O)[C@H](C)[C@@H](O[C@H]2C[C@@](C)(OC)[C@@H](O)[C@H](C)O2)[C@H](C)[C@@H](O[C@@H]2O[C@H](C)C[C@H](N(C)C)[C@H]2O)[C@](C)(O)C[C@@H](C)CN(CCCNC(=O)NCc2ccc(OC)cc2)[C@H](C)[C@@H](O)[C@]1(C)O and stop.
6.69

Specify pIC50 for CCNC(=O)NCCCN1C[C@H](C)C[C@@](C)(O)[C@H](O[C@@H]2O[C@H](C)C[C@H](N(C)C)[C@H]2O)[C@@H](C)[C@H](O[C@H]2C[C@@](C)(OC)[C@@H](O)[C@H](C)O2)[C@@H](C)C(=O)O[C@H](CC)[C@@](C)(O)[C@H](O)[C@H]1C and stop.
4.86

Specify pIC50 for CC[C@H]1OC(=O)[C@H](C)[C@@H](O[C@H]2C[C@@](C)(OC)[C@@H](O)[C@H](C)O2)[C@H](C)[C@@H](O[C@@H]2O[C@H](C)C[C@H](N(C)C)[C@H]2O)[C@](C)(O)C[C@@H](C)CN(CCCNC(=S)NCC2CC3CCC2C3)[C@H](C)[C@@H](O)[C@]1(C)O (some centres undefined) and stop.
7.33

Specify pIC50 for CC[C@H]1OC(=O)[C@H](C)[C@@H](O[C@H]2C[C@@](C)(OC)[C@@H](O)[C@H](C)O2)[C@H](C)[C@@H](O[C@@H]2O[C@H](C)C[C@H](N(C)C)[C@H]2O)[C@](C)(O)C[C@@H](C)CN(CCCNC(=S)Nc2ccc(N(CC)CC)cc2)[C@H](C)[C@@H](O)[C@]1(C)O and stop.
6.17

Specify pIC50 for CC[C@H]1OC(=O)[C@H](C)[C@@H](O[C@H]2C[C@@](C)(OC)[C@@H](O)[C@H](C)O2)[C@H](C)[C@@H](O[C@@H]2O[C@H](C)C[C@H](N(C)C)[C@H]2O)[C@](C)(O)C[C@@H](C)CN(CCCNC(=S)Nc2ccc(Br)cc2)[C@H](C)[C@@H](O)[C@]1(C)O and stop.
6.77

Specify pIC50 for CCOC(=O)c1ccc(NC(=S)NCCCN2C[C@H](C)C[C@@](C)(O)[C@H](O[C@@H]3O[C@H](C)C[C@H](N(C)C)[C@H]3O)[C@@H](C)[C@H](O[C@H]3C[C@@](C)(OC)[C@@H](O)[C@H](C)O3)[C@@H](C)C(=O)O[C@H](CC)[C@@](C)(O)[C@H](O)[C@H]2C)cc1 and stop.
7.15

Specify pIC50 for CC[C@H]1OC(=O)[C@H](C)[C@@H](O[C@H]2C[C@@](C)(OC)[C@@H](O)[C@H](C)O2)[C@H](C)[C@@H](O[C@@H]2O[C@H](C)C[C@H](N(C)C)[C@H]2O)[C@](C)(O)C[C@@H](C)CN(CCCNC(=S)Nc2ccc(N3CCOCC3)nc2)[C@H](C)[C@@H](O)[C@]1(C)O and stop.
5.71

Data provenance is ChEMBL document CHEMBL1681728.
